- Assayed system: H. pylori shikimate kinase (HpSK) (Helicobacter pylori)
- Construct: made in house; host or cells: Escherichia coli (stated for the mutants, which followed the wild-type procedure)
- Sequence (P56073 whole entry): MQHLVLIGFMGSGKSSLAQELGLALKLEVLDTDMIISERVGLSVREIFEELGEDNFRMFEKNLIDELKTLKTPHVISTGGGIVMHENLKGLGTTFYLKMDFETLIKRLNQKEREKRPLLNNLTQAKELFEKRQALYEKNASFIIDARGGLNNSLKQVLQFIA
- Method summary: Shikimate kinase coupled enzyme inhibition assay (HpSK)
- Format: biochemical
- Measurement setup: IC50, SK species: Hp; 1.6 mM shikimic acid, 2.5 mM ATP, 25°C, pH 7.5
Parameter IC50: see the listing below.
Give your result in µM as a bare value.

Please review the entries below; each comes with its answer.
Compound	Assayed system	IC50 (µM)
O=C1Nc2ccc(I)cc2/C1=C/c1cc(Br)c(O)c(Br)c1 [GW5074, reference compound]	H. pylori shikimate kinase (HpSK) (Helicobacter pylori)	31.4
O=C(NNC(=O)C1c2ccccc2Oc2ccccc21)c1cccc(F)c1	H. pylori shikimate kinase (HpSK) (Helicobacter pylori)	40.2

get_value(item= O=C(NNC(=O)C1c2ccccc2Oc2ccccc21)c1cccc([N+](=O)[O-])c1 , readout=IC50) returns 23.8
